- assaySystem: Sigma non-opioid intracellular receptor 1 (Rattus norvegicus, UniProt Q9R0C9)
- Sequence (Q9R0C9 whole entry): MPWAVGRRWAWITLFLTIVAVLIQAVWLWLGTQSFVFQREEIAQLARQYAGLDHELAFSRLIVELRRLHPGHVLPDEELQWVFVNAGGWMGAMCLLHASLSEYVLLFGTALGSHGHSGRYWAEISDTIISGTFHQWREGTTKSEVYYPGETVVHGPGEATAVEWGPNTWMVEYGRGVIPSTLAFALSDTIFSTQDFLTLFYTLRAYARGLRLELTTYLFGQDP
quantityMeasured: Ki (nM)
Give a bare numeral; the unit nM is implied.

Fill in the blank: the reported Ki of CCC12CCN(CC3(O)CC3)C(Cc3ccc(O)cc31)C2(C)C (configuration not stated) is ____.
229

All values here come from BindingDB's records for PubMed 2989489.
